TARGET OF ASSAY: T1, hERα-LBD (ligand binding domain of estrogen receptor α) (human, UniProt P03372 297-554)
T1 construct: Assayed with estradiol, diethylstilbestrol, genistein or tamoxifen present; the ligand is named under assay in each row
T1 sequence (looked up): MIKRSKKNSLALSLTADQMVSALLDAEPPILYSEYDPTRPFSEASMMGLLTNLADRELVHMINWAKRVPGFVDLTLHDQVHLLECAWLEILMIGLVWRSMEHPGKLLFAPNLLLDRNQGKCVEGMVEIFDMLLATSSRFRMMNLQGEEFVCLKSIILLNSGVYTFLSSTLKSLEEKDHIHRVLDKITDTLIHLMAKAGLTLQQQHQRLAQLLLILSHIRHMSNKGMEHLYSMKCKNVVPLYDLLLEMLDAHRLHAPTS
ASSAY METHOD TEXT: fluorescence polarization, labelled peptide 10 nM, hERα-LBD titrated, diethylstilbestrol present; 100 may stand for above the assay limits
Experimental: The concentration of protein varied between 0.001-20 μM in the following way. […] Subsequently 10 μL of diluted protein was added to 10 μL of fluorescent coregulator peptide (20 nM) in 384-well plates yielding final protein concentrations of […] and 10 nM fluorescent peptide concentration. […] Binding was then measured using fluorescence polarization (excitation λ at 485 nm, emission λ at 530 nm) on an Analyst AD (available from Molecular Devices). […]
Ends that are not written are not given here.
READOUT: Kd (µM)
Express the result in µM but write the number alone.

Inquiry: Would you mind telling me what Kd value was observed for C(5‑iodoacetamidofluorescein)KKENNALLRYLLDRDDPSD [SRC3-3 coregulator peptide] ?
Reply text: 100

Origin of measurements: patent US20040005636A1
